- Assayed Target: VAP-1/SSAO (Homo sapiens (Human))
- Sequence (Q16853 whole entry): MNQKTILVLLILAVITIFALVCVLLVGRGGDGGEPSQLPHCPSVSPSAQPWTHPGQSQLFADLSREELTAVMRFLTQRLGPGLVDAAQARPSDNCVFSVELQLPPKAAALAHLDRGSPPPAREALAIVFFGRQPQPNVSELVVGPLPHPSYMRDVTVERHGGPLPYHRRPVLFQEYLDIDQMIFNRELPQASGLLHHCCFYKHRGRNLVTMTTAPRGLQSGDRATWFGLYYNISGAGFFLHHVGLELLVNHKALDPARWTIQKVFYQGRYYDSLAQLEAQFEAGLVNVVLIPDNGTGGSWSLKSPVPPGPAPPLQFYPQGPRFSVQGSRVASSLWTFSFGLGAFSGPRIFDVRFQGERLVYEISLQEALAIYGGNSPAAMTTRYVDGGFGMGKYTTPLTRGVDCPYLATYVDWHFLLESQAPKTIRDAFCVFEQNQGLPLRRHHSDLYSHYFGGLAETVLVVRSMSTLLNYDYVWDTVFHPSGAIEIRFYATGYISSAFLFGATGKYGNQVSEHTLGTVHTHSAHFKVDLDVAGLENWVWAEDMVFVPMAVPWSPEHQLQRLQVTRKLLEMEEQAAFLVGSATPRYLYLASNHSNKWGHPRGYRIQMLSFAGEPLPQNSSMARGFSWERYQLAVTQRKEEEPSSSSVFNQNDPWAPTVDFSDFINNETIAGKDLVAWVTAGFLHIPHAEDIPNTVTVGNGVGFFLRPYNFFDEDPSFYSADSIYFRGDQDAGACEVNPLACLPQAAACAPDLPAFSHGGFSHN
- Method Summary: VAP-1 cell activity assay (HUVEC or CHO cells transfected with VAP-1/pCDNA(3.1) plasmid, Amplex Red)
- Assay type: cell-based
- Protocol Conditions: HUVEC or CHO cells transfected with VAP-1 plasmid; read-out: VAP-1/SSAO Cellular Inhibitory Activity IC50
Quantity Kind: pIC50
Expect pIC50 as a plain number equal to -log10 of the molar concentration.

molecule Cn1nc(-c2ccc(OC/C(=C/F)CN)cc2F)nc1C1CC1 , pIC50 observed: 9.70

Where do these numbers come from? They come from patent US11505532B2.
